ASSAYED SYSTEM: UniProtKB Q12809
PROTOCOL TEXT: Inhibition of human ERG at 50 uM
READOUT LABEL: inhibition at 50 µM

1) C[C@@H]1C[C@@](O)(C#Cc2cccc3ccccc23)[C@@H](C)CN1C
15%

* * *

ASSAYED SYSTEM: Histamine H3 receptor (Mus musculus)
Sequence (P58406 whole entry): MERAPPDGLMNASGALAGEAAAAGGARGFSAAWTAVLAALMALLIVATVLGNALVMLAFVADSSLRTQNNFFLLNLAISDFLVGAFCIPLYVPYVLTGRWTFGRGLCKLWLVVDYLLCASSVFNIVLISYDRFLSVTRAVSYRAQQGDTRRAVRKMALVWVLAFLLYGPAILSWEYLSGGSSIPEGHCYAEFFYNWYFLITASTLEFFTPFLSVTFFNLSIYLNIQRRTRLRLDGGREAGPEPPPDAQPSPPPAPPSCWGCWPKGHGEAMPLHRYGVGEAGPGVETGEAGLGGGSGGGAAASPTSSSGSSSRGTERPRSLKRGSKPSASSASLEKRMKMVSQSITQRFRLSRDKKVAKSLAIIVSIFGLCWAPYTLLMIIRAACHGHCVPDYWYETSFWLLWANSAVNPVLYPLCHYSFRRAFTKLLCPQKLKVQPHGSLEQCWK
PROTOCOL TEXT: Antagonist activity against mouse histamine H3 receptor expressed in human HT1080 cells assessed as inhibition of (R)-alpha-methylhistamine-induced increase in intracellular calcium level by FLIPR assay
pIC50: −log10 of the molar value.
Overview of recorded pIC50 for various compounds
READOUT LABEL: pIC50

1) CC1CC(O)(CCc2ccc3ccccc3c2)C(C)CN1C (racemic)
6.91
2) CC1CC(O)(C#Cc2ccc3ccccc3c2)C(C)CN1C (racemic)
6.09
3) CC1CC(O)(CCc2cccc3ccccc23)C(C)CN1C (racemic)
6.32
4) CC1CC(O)(C#Cc2cccc3ncccc23)C(C)CN1C (racemic)
6.16
5) NC(=NCc1ccc(Cl)cc1)SCCCc1cnc[nH]1
9.00
6) C[C@@H]1CN(C)[C@@H](C)C[C@]1(O)C#Cc1cccc2ccccc12
5.88
7) CC1CC(O)(C#Cc2cccc3cccnc23)C(C)CN1C (racemic)
5.01
8) C[C@@H]1C[C@@](O)(CCc2cccc3ccccc23)[C@@H](C)CN1C
7.07
9) C[C@@H]1C[C@@](O)(C#Cc2cccc3ccccc23)[C@@H](C)CN1C
6.92

* * *

ASSAYED SYSTEM: UniProt P58406
PROTOCOL TEXT: Antagonist activity against mouse histamine H3 receptor expressed in human HT1080 cells assessed as inhibition of (R)-alpha-methylhistamine-induced increase in intracellular calcium level by FLIPR assay
READOUT LABEL: IC50 (nM)

1) CC1CC(O)(C#Cc2cccc3ccccc23)C(C)CN1C (racemic)
280
2) CC1CC(O)(/C=C/c2cccc3ccccc23)C(C)CN1C (racemic)
570
3) CC1CN2CCCC2CC1(O)CCc1cccc2ccccc12 (racemic)
345
4) CC1CN2CCCC2CC1(O)C#Cc1cccc2ccccc12 (racemic)
280

* * *

ASSAYED SYSTEM: hERG (KCNH2) (Homo sapiens)
Sequence (Q12809 whole entry): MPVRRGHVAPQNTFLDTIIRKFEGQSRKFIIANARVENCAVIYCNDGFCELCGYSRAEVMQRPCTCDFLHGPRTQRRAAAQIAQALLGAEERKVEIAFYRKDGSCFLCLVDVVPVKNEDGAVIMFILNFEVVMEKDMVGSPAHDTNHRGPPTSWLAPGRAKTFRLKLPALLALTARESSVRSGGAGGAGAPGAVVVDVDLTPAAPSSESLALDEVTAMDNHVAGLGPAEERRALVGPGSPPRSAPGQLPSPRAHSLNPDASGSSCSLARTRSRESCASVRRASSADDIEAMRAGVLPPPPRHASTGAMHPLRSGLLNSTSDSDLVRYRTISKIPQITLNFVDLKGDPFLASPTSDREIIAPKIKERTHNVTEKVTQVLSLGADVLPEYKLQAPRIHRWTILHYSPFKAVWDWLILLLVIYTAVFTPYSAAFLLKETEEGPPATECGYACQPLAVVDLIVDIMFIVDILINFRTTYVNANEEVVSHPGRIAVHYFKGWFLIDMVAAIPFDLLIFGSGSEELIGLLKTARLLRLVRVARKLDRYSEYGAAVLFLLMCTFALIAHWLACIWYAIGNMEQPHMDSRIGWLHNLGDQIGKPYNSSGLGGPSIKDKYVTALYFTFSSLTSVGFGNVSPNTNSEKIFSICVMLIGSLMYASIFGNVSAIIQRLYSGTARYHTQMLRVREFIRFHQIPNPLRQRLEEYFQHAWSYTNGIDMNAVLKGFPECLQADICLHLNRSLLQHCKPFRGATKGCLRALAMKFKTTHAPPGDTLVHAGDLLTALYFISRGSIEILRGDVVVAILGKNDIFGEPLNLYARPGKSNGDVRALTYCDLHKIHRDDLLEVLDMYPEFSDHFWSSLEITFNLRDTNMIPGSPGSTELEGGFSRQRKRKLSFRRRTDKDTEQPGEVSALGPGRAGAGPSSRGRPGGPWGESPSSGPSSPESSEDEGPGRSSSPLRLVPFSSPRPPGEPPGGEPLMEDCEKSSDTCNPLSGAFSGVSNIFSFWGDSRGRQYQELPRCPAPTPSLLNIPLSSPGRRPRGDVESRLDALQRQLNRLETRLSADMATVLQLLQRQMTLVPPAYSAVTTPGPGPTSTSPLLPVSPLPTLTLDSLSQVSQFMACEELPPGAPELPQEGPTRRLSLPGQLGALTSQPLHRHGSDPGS
PROTOCOL TEXT: Inhibition of human ERG at 10 uM
READOUT LABEL: inhibition at 10 µM (%)

1) CC1CC(O)(C#Cc2cccc3ncccc23)C(C)CN1C (racemic)
3
2) CC1CN2CCCC2CC1(O)C#Cc1cccc2ccccc12 (racemic)
23
3) C[C@@H]1C[C@@](O)(CCc2cccc3ccccc23)[C@@H](C)CN1C
16
4) CC1CC(O)(/C=C/c2cccc3ccccc23)C(C)CN1C (racemic)
20
5) CC1CC(O)(CCc2cccc3ccccc23)C(C)CN1C (racemic)
15
6) CC1CC(O)(CCc2ccc3ccccc3c2)C(C)CN1C (racemic)
0
